Test system: SN12C
Assay: NCI tumour cell line growth inhibition, 48 h
The source made the active and inactive calls. No stated cut-off is given here; in the data, active = GI50 up to about 1.1 µM and inactive = higher.
Would you mind answering with one of these outcomes? active, inactive

Could you check what this test reported for `CCCCC/C(=N\c1[nH]cnc1C(N)=O)OCC` ? inactive

====

Test system: DMS-114
Test: NCI tumour cell line growth inhibition, 48 h
The source made the active and inactive calls. Rule as the data show it: active = GI50 up to about 1.1 µM and inactive = higher.
Would you mind answering with one of these outcomes? class 1 = active, class 0 = inactive

MOLECULE: NC(=S)NNc1c([N+](=O)[O-])cnn(-c2ccccc2)c1=O
GROUP LABEL: class 0
--
MOLECULE: CN1OC2OC(=O)OC2[C@H]1[C@H]1O[C@H](c2ccccc2)OC1(C)c1cc(OC(=O)c2ccccc2)ccc1OC(=O)c1ccccc1 (some centres undefined)
GROUP LABEL: class 0
--
MOLECULE: Cc1cc2c(=O)cc(-c3ccc(C(=O)O)cc3)oc2c(C(N)=O)c1C
GROUP LABEL: class 0

Could you check what this test reported for `CC(=O)OC(=O)O/C=C\CCl` ? class 0

Please give the result for `C[n+]1cccc(NC(=O)c2ccc(NC(=O)C34CCC(C(=O)Nc5ccc(C(=O)Nc6ccc[n+](C)c6)cc5)(CC3)CC4)cc2)c1` too. class 0

====

These compounds were tested on HCT-15; log10 of GI50 is the recorded read-out.
// do not treat as linear: log10 of GI50, unit µM

Item COc1cc(C2c3[nH]c4ccccc4c3[C@@H](Nc3ccc(F)cc3)[C@H]3COC(=O)N23)cc(OC)c1O (stereo partly drawn) has what recorded log10 of GI50? 0.22

Please give the result for `CCCNCc1nc2ccc(Br)cc2c(=O)n1CCC` too. 1.15

Please give the result for `COc1ccc2[nH]c3c(C)c4ccnc(NCCCN(C)CCCN)c4c(C)c3c2c1` too. -0.59

====

System: A549
Assay: NCI tumour cell line growth inhibition, 48 h
Calls of active or inactive are those of the source. No stated cut-off is given here; in the data, active = GI50 up to about 1.1 µM and inactive = higher.
Parameter GI50: see the listing below.

Examples from the recorded data:
COMPOUND: O=C1c2ccc3c4ccc5c6c(ccc(c7ccc(c2c37)C(=O)N1CCN1CCCCC1)c64)C(=O)N(CCN1CCCCC1)C5=O
METRIC: GI50
TEST VALUE: > 100 µM (inactive)
//
COMPOUND: CCOC(=O)NC(=O)c1cn(C2CCCCC2)c(=O)[nH]c1=O
METRIC: GI50
TEST VALUE: 58.7 µM (inactive)
//
COMPOUND: c1ccc(CC(Nc2cccnc2)c2ccccc2)cc1 (centres undefined)
METRIC: GI50
TEST VALUE: 25.6 µM (inactive)
//
COMPOUND: O=C1OC(c2ccccc2)C2CC3CC4(CCC3CN12)OCCO4 (centres undefined)
METRIC: GI50
TEST VALUE: > 100 µM (inactive)
//
COMPOUND: COc1ccc(/C=[N+](\[O-])[C@H](COCc2ccccc2)c2ccccc2)cc1
METRIC: GI50
TEST VALUE: > 10 µM (inactive)
//
COMPOUND: COCC(O)CN1C(N)=NC(O)C1O (centres undefined)
METRIC: GI50
TEST VALUE: > 100 µM (inactive)
//
COMPOUND: C(=C\c1cccc(/C=C/c2ccccn2)n1)/c1ccccn1
METRIC: GI50
TEST VALUE: > 100 µM (inactive)
//
COMPOUND: COc1ccc2[nH]c3c(C)c4ccnc(NCCCN(C)CCCN)c4c(C)c3c2c1
METRIC: GI50
TEST VALUE: 0.0442 µM (active)

Item `CC1(C)N=C(N)N=C(N)N1c1ccc(Cl)cc1` has what recorded GI50? 0.665 µM (active)

====

System: KM12
Assay: NCI tumour cell line growth inhibition, 48 h
Active and inactive are the calls of the source. No stated cut-off is given here; in the data, active = GI50 up to about 1.1 µM and inactive = higher.
METRIC: GI50

Examples from the recorded data:
COMPOUND: CCOc1ccc2c(c1)c(=O)c1c(NCCN(CC)CC)ccc3nnn2c31
GI50: 14 µM (inactive)
//
COMPOUND: O=C1C2C(C(=O)N1OS(=O)(=O)c1ccccc1)N(Cc1ccccc1)C(=O)N2Cc1ccccc1 (stereo not given)
GI50: > 100 µM (inactive)
//
COMPOUND: O=C(O)CCSC(=O)Nc1ccccc1
GI50: > 100 µM (inactive)
//
COMPOUND: COc1ccc(CNc2nc(NC3CCCCC3)nc(NC3CCCCC3)n2)cc1
GI50: 1.21 µM (inactive)
//
COMPOUND: N=C(N)N/N=C\c1c(-c2cccc([N+](=O)[O-])c2)nc2sccn12
GI50: 1.02 µM (active)
//
COMPOUND: Cc1ccc(S(=O)(=O)NC(=O)NC(Cc2ccccc2)C(=O)O)cc1 (stereo not given)
GI50: > 100 µM (inactive)
//
COMPOUND: N#Cc1c(N2CCOCC2)ncn(-c2ccccc2)c1=O
GI50: > 100 µM (inactive)
//
COMPOUND: COc1ccccc1/N=N/c1c(O)c(S(=O)(=O)O)cc2cc(S(=O)(=O)O)ccc12
GI50: > 100 µM (inactive)

Item `C=C(CCC/C(C)=C/C=C/[C@]1(C)CCCc2ccoc21)CC(=O)O` has what recorded GI50? > 100 µM (inactive)

Please give the result for `O=C(O)c1ccc([N+](=O)[O-])c2c(=O)c3ccccc3[nH]c12` too. > 100 µM (inactive)

Please give the result for `CC1(C)N=C(N)N=C(N)N1c1ccc(Cl)cc1` too. 8.73 µM (inactive)

====

System: SNB-75
Assay: NCI tumour cell line growth inhibition, 48 h
Activity calls are given as the source filed them. Cut-off read from the data, not from the text of the source: active = GI50 up to about 1.1 µM and inactive = higher.
METRIC: GI50

COMPOUND: COc1cccc2c1C(CO)N1C(C#N)C3CC(C(=O)O)C(C1C2)N3C (stereo unspecified)
EXPERIMENTAL SYSTEM: SNB-75
GI50: 1.6 µM (inactive)

COMPOUND: c1cnc(N2CCN(Cc3c[nH]c4ccccc34)CC2)nc1
EXPERIMENTAL SYSTEM: SNB-75
GI50: 89.9 µM (inactive)

COMPOUND: N#CC(C#N)=C1NN=C(Cl)c2ccccc21
EXPERIMENTAL SYSTEM: SNB-75
GI50: 33.9 µM (inactive)

COMPOUND: O=c1c2cc(-c3ccccc3)cnc2sn1-c1ccc([N+](=O)[O-])cc1
EXPERIMENTAL SYSTEM: SNB-75
GI50: 25.1 µM (inactive)

COMPOUND: N#Cc1cc2c(n(C3OC(CO)C(O)C(O)C3O)c1=S)CCCCCC2 (stereo unspecified)
EXPERIMENTAL SYSTEM: SNB-75
GI50: > 100 µM (inactive)

Requested read-out GI50, target or system SNB-75, entry O=C1C2C(C(=O)N1OS(=O)(=O)c1ccccc1)N(Cc1ccccc1)C(=O)N2Cc1ccccc1 (stereo unspecified) 57.1 µM (inactive)

Please give the result for CC1CCC2(C(=O)O)CCC3(C)C(=CCC4C5(C)CC(O)C(O)C(C)(CO)C5C(O)CC43C)C2C1C (stereo unspecified) too. 28.1 µM (inactive)

Please give the result for `Cn1c2ccccc2c2ccc3c(c21)C(=O)C=CC3=O` too. 16.7 µM (inactive)

Please give the result for `Cc1ccc(O)c(C(c2cc(C)ccc2O)c2cc([N+](=O)[O-])ccc2O)c1` too. 5.46 µM (inactive)

Please give the result for CC1CCCc2c1c1ccc3c(O)cccc3c1oc2=O (stereo unspecified) too. 8.15 µM (inactive)

Please give the result for Fc1ccc(C(OCCN2CCC3CCC(C2)N3C/C=C/c2cccnc2)c2ccc(F)cc2)cc1 (stereo unspecified) too. 14.2 µM (inactive)

====

Test system: SK-MEL-5
Test: NCI tumour cell line growth inhibition, 48 h
Active and inactive are the calls of the source. Rule as the data show it: active = GI50 up to about 1.1 µM and inactive = higher.
Would you mind answering with one of these outcomes? t = active, f = inactive

COMPOUND: CCCCn1c2c(n(CCCC)c1=S)-c1c(n(CCCC)c(=S)n1CCCC)SSSS2
GROUP LABEL: f
//
COMPOUND: OCC(O)C(O)C(O)c1nnn[nH]1 (stereo not drawn)
GROUP LABEL: f
//
COMPOUND: CCOC(=O)C(CC#Cc1ccc(C#CCC(NC(C)=O)C(=O)OCC)cc1)NC(C)=O (stereo not drawn)
GROUP LABEL: f
//
COMPOUND: N#CC(NC12CC3CC(CC(C3)C1)C2)c1ccccc1 (stereo not drawn)
GROUP LABEL: f
//
COMPOUND: CC(C)[Si](OC1=C(c2ccccc2)C(NC(=O)/C=C/c2ccc([N+](=O)[O-])cc2)CCC1)(C(C)C)C(C)C (stereo not drawn)
GROUP LABEL: f
//
COMPOUND: Cc1cc(O)c2c(c1)C(O)(c1ccc3c(c1O)C(=O)c1c(O)cc(C)cc1C3(O)C1OC(CO)C(O)C(O)C1O)c1cccc(O)c1C2=O (stereo not drawn)
GROUP LABEL: f
//
COMPOUND: O=C1CCCCC/C1=C\c1ccccc1
GROUP LABEL: f
//
COMPOUND: O=C1CSC2=NC3=C(CSC/C3=C\c3ccccc3)C(c3ccccc3)N12 (stereo not drawn)
GROUP LABEL: f
//
COMPOUND: CC1CN1c1c(C(=O)/C=C/c2ccccc2)c(-c2ccccc2)nn(C)c1=O (stereo not drawn)
GROUP LABEL: f
//
COMPOUND: C[C@H]1[C@@H]2C[C@@H]3O[C@@]34[C@H]3CCC5Cc6nc7c(nc6C[C@@]5(C)[C@]3(O)CC(=O)[C@@]24CO[C@]12OC(C)(C)C[C@@H]2O)CC1CC[C@@H]2C3=C[C@H]4O[C@@]5(OC(C)(CO)C[C@@H]5O)[C@H](C)[C@@]4(O)[C@]3(C)[C@@H](O)CC2[C@]1(C)C7 (stereo partly drawn)
GROUP LABEL: t

Could you check what this test reported for `COc1cc2c[n+]3ccc4cc(OC)c(OC)cc4c3cc2cc1O` ? f

Please give the result for CCCCC(C(=O)CCC(=O)Nc1ccc(Cl)cc1)C(=O)C(C)C (stereo not drawn) too. f
